B1: glmS ribozyme (parent)
chain: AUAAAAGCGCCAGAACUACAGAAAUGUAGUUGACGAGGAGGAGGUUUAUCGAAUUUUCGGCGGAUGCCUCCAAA

# Variants of: B1
# ASSAY METHOD TEXT: self-cleavage kobs at 2500 uM GlcN6P; higher = faster cleavage; RNA array
# REPORTED CONDITIONS: with glucosamine-6-phosphate
Variants at the floor of the assay were thinned out.
Kind request: treat 0.0004 s⁻¹ as inclusive, so self-cleavage kobs at 2500 uM GlcN6P at 0.0004 s⁻¹ or higher is rule met, anything lower is rule not met.

>>> class_assignment("C10U A12C G66A")
"rule not met"
>>> class_assignment("U30G U69A")
"rule not met"
>>> class_assignment("C11A C16A U47C C61U")
"rule not met"
>>> class_assignment("U31A A53U")
"rule met"
>>> class_assignment("A53G C58A")
"rule not met"
>>> class_assignment("C8U A12U A48U G62C U65A")
"rule not met"
>>> class_assignment("U65C")
"rule met"
>>> class_assignment("G32C G44A A48U")
"rule not met"
>>> class_assignment("U30G C58G G60U")
"rule not met"
>>> class_assignment("G37U G43C A48C C61U G63U")
"rule not met"
>>> class_assignment("U46A A53U C68U")
"rule not met"
